These measurements were taken from PubChem BioAssay (NCI).

Measurement description: NCI Yeast Anticancer Drug Screen. Data for the mlh1 rad18 strain (AID 175)
Protocol conditions: S. cerevisiae mlh1 rad18 strain growth inhibition; at 50.0 µM (retest, dose inferred, filed as 5.0); stronger effect = higher value
About 79,000 compounds went through this panel and 15% of them were active in at least one assay; those are over-represented in the sample as a whole.
Assay metric: growth inhibition (%)
Report as a plain number; the unit % is understood.

Solved entries (count: 2):
{"Compound": "Cc1cc(O)ccc1N=Nc1ccccc1", "Assay metric": "growth inhibition", "Observed result": 99}
{"Compound": "CC(CN(C)C)C(/C=C/c1ccc(Cl)c(Cl)c1)=N\\Nc1ccccc1 (configuration not stated)", "Assay metric": "growth inhibition", "Observed result": 96}

**Q:** Consider the compound CCOC(=O)C(CCOC)C(=O)OCC and give its measured growth inhibition.
**A:** 72

**Q:** Next record, please: c1ccc2c(c1)OCC(CNCCNCC1COc3ccccc3O1)O2 (configuration not stated)
**A:** 74

**Q:** Next record, please: CC(C)N(CC(=O)c1ccc2cc(Cl)c3ccccc3c2c1)C(C)C
**A:** 98

**Q:** Next record, please: CCCCCN=Cc1c(O)c(O)c(C(C)C)c2cc(C)c(-c3c(C)cc4c(C(C)C)c(O)c(O)c(C=NCCCCC)c4c3O)c(O)c12
**A:** 25

**Q:** Next record, please: CCOC(=O)c1[nH]cnc1/N=N/c1nc(O)c(C#N)[nH]1
**A:** 99

**Q:** Next record, please: COc1ccc(C(=O)Nc2ccccc2[N+](=O)[O-])cc1
**A:** 0

**Q:** Next record, please: COc1ccc(N(C)Sc2ccccc2)cc1
**A:** 97

**Q:** Next record, please: CCCN1CN(C(C(=O)N[C@@H]2C(=O)N3C(C(=O)O)=C(C)CSC23)c2ccccc2)CSC1=S (some centres not stated)
**A:** -12

**Q:** Next record, please: COc1ccc(-c2c(CO)cc(OC)c(OC)c2OC)c(CO)c1
**A:** 41

**Q:** Next record, please: Oc1ccc2c(c1O)/C(=C/C=NCC1(O)OCC(O)C(O)C1O)C=N2 (configuration not stated)
**A:** -2

**Q:** Next record, please: CCN(CC)c1ccc(N=C2C=C(C(=O)Nc3cccc(Cl)c3)C(=O)c3ccccc32)c(C)c1
**A:** -43

**Q:** Next record, please: Cc1cccc(Cl)c1NC(=S)Nc1cccc(C(F)(F)F)c1
**A:** 17

**Q:** Next record, please: FC(F)(F)c1ccc(Cl)c(NC(=S)SC2CCCCC2)c1
**A:** 97

* * *

Measurement description: NCI Yeast Anticancer Drug Screen. Data for the mec2-1 strain (AID 157)
Protocol conditions: S. cerevisiae mec2-1 strain, at 50.0 µM (retest, dose inferred, filed as 5.0), stronger effect = higher value
Compounds without any hit were thinned out: in the full panel of roughly 79,000, 15% have a hit.
# growth inhibition values compiled below
Report as a plain number; the unit % is understood.

Solved entries (count: 3):
{"Compound": "COc1cc(C(c2cc3c(cc2O)OCO3)N2CCN(C(c3cc(OC)c(OC)c(OC)c3)c3cc4c(cc3O)OCO4)CC2)cc(OC)c1OC (stereo not given)", "Assay metric": "growth inhibition", "Units text": "%", "Observed result": 74}
{"Compound": "ON=C(CC(O)(C(F)(F)Cl)C(F)(F)Cl)CC(O)(C(F)(F)Cl)C(F)(F)Cl", "Assay metric": "growth inhibition", "Units text": "%", "Observed result": 100}
{"Compound": "Cc1ccc(/C=C2\\CCCC(CN3CCCCC3)C2=O)cc1 (stereo not given)", "Assay metric": "growth inhibition", "Units text": "%", "Observed result": 99}

**Q:** Consider the compound Clc1ccc(C2SCc3nc4ccccc4n32)c(Cl)c1 (stereo not given) and give its measured growth inhibition.
**A:** 97

**Q:** Next record, please: CC1(C)C(=O)N(CCCCCCN2C(=O)C(C)(C)c3ccccc32)c2ccccc21
**A:** 4

* * *

Measurement description: NCI Yeast Anticancer Drug Screen. Data for the bub3 strain (AID 167)
Protocol conditions: S. cerevisiae bub3 mutant strain, at 5.0 µM (retest, dose inferred, filed as 0.5), stronger effect = higher value
This is part of a sample that, as a whole, favours compounds with a hit. Of some 79,000 tested, about 15% had one in any assay.
Assay metric: growth inhibition (%)
Report as a plain number; the unit % is understood.

Solved entries (count: 5):
{"Compound": "Cc1cc2c(c3c1C(=O)CC3)C(C)(C)CC2(C)C", "Units text": "%", "growth inhibition": 25}
{"Compound": "BrCC1(CBr)COC1", "Units text": "%", "growth inhibition": 29}
{"Compound": "Cc1cc(N)c(C)c2c1[nH]c1ccc(Br)cc12", "Units text": "%", "growth inhibition": -3}
{"Compound": "Cc1cccc2c1Oc1ccccc1C2N1C(=O)/C(=C/c2ccccc2Cl)SC1=S (stereo not drawn)", "Units text": "%", "growth inhibition": 99}
{"Compound": "O=C1CC(O)C=C1Nc1ccc(Cl)cc1 (stereo not drawn)", "Units text": "%", "growth inhibition": -9}

**Q:** Consider the compound C=CCSc1nc2ccccc2c(=O)n1Cc1ccco1 and give its measured growth inhibition.
**A:** 45

**Q:** Next record, please: Brc1c2nc3ccccc3nc2n2ccc3ccccc3c12
**A:** -37

**Q:** Next record, please: CCCCCCCCCCCCCCCC[N+](C)(C)c1ccccc1
**A:** 99

**Q:** Next record, please: Clc1ccc(-c2nnn3ccccc23)cc1
**A:** 2

* * *

Measurement description: NCI Yeast Anticancer Drug Screen. Data for the mec2-1 strain (AID 157)
Protocol conditions: S. cerevisiae mec2-1 strain, at 5.0 µM (retest, dose inferred, filed as 0.5)
The panel holds about 79,000 compounds, 15% with a hit somewhere; the sample as a whole holds those more often. Activity calls are given as the source filed them. No stated cut-off is given here; in the data, active means growth inhibition above about 70%; inactive means the rest.
Answer with one of the outcomes Y = active, N = inactive

Example results:
{"Molecule": "O=C1C(N=Nc2ccccc2)=C(O)C2C3C=CC(C3)C12 (stereo not drawn)", "Class name": "N"}
{"Molecule": "CC12CCc3ccccc3C1=Nc1ccccc12 (stereo not drawn)", "Class name": "N"}
{"Molecule": "O=S(=O)(CC(Br)CCl)c1ccccc1 (stereo not drawn)", "Class name": "N"}
{"Molecule": "CC(C)(C)C(=O)OC12/C(=N/O)CCCCCC1c1ccccc12 (stereo not drawn)", "Class name": "N"}
{"Molecule": "CCOC(=O)N/N=C/c1ccc(N(C)CCC#N)cc1", "Class name": "N"}

**Q:** Recorded test call requested for CN(C(=O)C(Cl)Cl)c1ccc(-c2csc(-c3ccccc3)n2)cc1
**A:** N

**Q:** Next record, please: Cc1ccc(Cl)cc1NC(=O)N(C)CCOC(=O)Nc1cccc(Cl)c1
**A:** N

**Q:** Next record, please: COS(=O)c1cc(Cl)cc(Cl)c1OC(=O)CSSCC(=O)Oc1c(Cl)cc(Cl)cc1S(=O)OC (stereo not drawn)
**A:** Y

* * *

Measurement description: NCI Yeast Anticancer Drug Screen. Data for the cln2 rad14 strain (AID 165);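 also: 0% = growth equal to vehicle treated cultures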
Protocol conditions: S. cerevisiae cln2 rad14 strain, at 5.0 µM (retest, dose inferred, filed as 0.5)
This is part of a sample that, as a whole, favours compounds with a hit. Of some 79,000 tested, about 15% had one in any assay. The source made the active and inactive calls. Cut-off read from the data, not from the text of the source: active = growth inhibition above about 70%; inactive = the rest.
Answer with one of the outcomes active, inactive

{"Compound": "CCCCOC(=O)C#CC(=O)OCCCC", "Class name": "inactive"}
{"Compound": "CCCCCCCCCCCc1ccn[nH]1", "Class name": "inactive"}
{"Compound": "COc1ccc2c(c1)N=C(N)n1c(nc3ccccc31)S2", "Class name": "inactive"}
{"Compound": "COC(=O)c1ccccc1NC(=O)C(=O)Cc1nc2c3c(ccc2[nH]c1=O)C(=O)c1ccccc1C3=O", "Class name": "inactive"}

**Q:** Recorded test call requested for O=C(c1ccccc1)C(Cl)c1ccccc1 (centres undefined)
**A:** inactive

**Q:** Next record, please: Clc1ccc(CN2COc3c(ccc4cccnc34)C2)cc1
**A:** inactive

**Q:** Next record, please: C=CCOc1ccccc1C(OCC)OCC
**A:** inactive

**Q:** Next record, please: CCSSC12CCCN1C(=O)C(C)N(C)C2=O (centres undefined)
**A:** inactive

**Q:** Next record, please: N#CC1C2CCC3(CC2CCN1C(=O)c1ccccc1)OCCO3 (centres undefined)
**A:** inactive

* * *

Measurement description: NCI Yeast Anticancer Drug Screen. Data for the mlh1 rad18 strain (AID 175)
Protocol conditions: S. cerevisiae mlh1 rad18 strain growth inhibition; at 50.0 µM (retest, dose inferred, filed as 5.0); stronger effect = higher value
This is part of a sample that, as a whole, favours compounds with a hit. Of some 79,000 tested, about 15% had one in any assay. Where a SMILES comes first, the peptide text is derived from it. The star is where a group is joined. Cbz = O=C(OCc1ccccc1)*; CH2Cl = ClC*
Assign class by growth inhibition: not lower than 50% means t; lower than 50% means f.

{"Compound": "O=Cc1c(Cn2ccnc2)c2cc([N+](=O)[O-])ccc2n1Cc1ccccc1", "Class name": "t"}
{"Compound": "CC(C)CC(NC(=O)OCc1ccccc1)C(=O)NC(Cc1ccccc1)C(=O)CCl (stereo not drawn) (Cbz-Leu-Phe-CH2Cl; configuration not given here)", "Class name": "t"}
{"Compound": "CCCCCCCCCCCCOC(=O)CC1CC(C(C)=O)C1(C)C (stereo not given)", "Class name": "f"}
{"Compound": "COc1cc(C(c2cc3c(cc2OC(C)=O)OCO3)C(C)C(C)=O)cc(OC)c1OC (stereo not given)", "Class name": "f"}
{"Compound": "C[N+](C)(C)CCN(Cc1cccs1)c1ccccn1", "Class name": "f"}
{"Compound": "CSC(=S)/C(=C/Nc1ncccn1)c1ccccc1", "Class name": "t"}
{"Compound": "COc1ccc2c(Cc3cccc([N+](=O)[O-])c3)cncc2c1O", "Class name": "t"}
{"Compound": "Cc1cc2oc3c(ccc(=O)n3C)c(=O)c2c(C)c1Cl", "Class name": "f"}

**Q:** Hi, just wondering whether CN(C)C(=O)/C=C/c1c[nH]c(=O)[nH]c1=O shows growth inhibition of 50% or higher.
**A:** f

**Q:** Next record, please: C/C=C/C(=O)N1c2ccccc2CC1c1c(C)[nH]c2ccccc12 (stereo not given)
**A:** t
